Target: T1, human IGFBP-1 (human, UniProt P08833 26-259)
T1 construct: Secreted recombinant protein
T1 sequence (looked up): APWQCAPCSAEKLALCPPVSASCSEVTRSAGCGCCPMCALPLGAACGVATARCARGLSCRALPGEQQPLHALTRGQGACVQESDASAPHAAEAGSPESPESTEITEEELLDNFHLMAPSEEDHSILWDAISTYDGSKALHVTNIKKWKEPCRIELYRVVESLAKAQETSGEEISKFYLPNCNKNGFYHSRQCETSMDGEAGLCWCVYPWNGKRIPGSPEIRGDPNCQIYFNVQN
Test: competitive phage ELISA, soluble IGFBP-1
Kindly supply the reported pIC50 values for the records listed here.
One number for each entry, as −log10 of the molar value.

# binder, pIC50
data = [
    ("IGF-I S34A (on G1S-A70V) displayed on phage (ligand, not shown: large carriers) SPETLCGAELVDALQFVCGDRGFYFNKPTGYGSASRRAPQTGIVDECCFRSCDLRRLEMYCAPLKPAKSV", 8.02),
    ("IGF-I G30A (on G1S-A70V) displayed on phage (ligand, not shown: large carriers) SPETLCGAELVDALQFVCGDRGFYFNKPTAYGSSSRRAPQTGIVDECCFRSCDLRRLEMYCAPLKPAKSV", 8.15),
    ("IGF-I T29A (on G1S-A70V) displayed on phage (ligand, not shown: large carriers) SPETLCGAELVDALQFVCGDRGFYFNKPAGYGSSSRRAPQTGIVDECCFRSCDLRRLEMYCAPLKPAKSV", 8.14),
]

Here is the next item to consider.
Prompt: Which pIC50 value is on record for IGF-I E9A (on G1S-A70V) displayed on phage (ligand, not shown: large carriers, disulfide (positions not given here); not fully specified; also: displayed on M13 phage as gene III fusion) SPETLCGAALVDALQFVCGDRGFYFNKPTGYGSSSRRAPQTGIVDECCFRSCDLRRLEMYCAPLKPAKSV ?
Completion: 8.07
